Hi there, I'd appreciate the recorded Maximum Signal (Δpm) for every entry that follows.
- Assay System: Rabbit cardiac α-tropomyosin (rabbit, UniProt P58772 1-284)
- Assay Notes: SPR

Some entries whose results are on file:
SKTRGKAKVTGCWK (peptide, UniProt P45379-6 275-288, looked up) [Human cTnT-C14 peptide containing HCM-linked mutation R286C] ... 114 Δpm
SKTRGNAKVTGRWK (peptide, UniProt P45379-6 275-288, looked up) [Human cTnT-C14 peptide containing HCM-linked mutation K280N] ... 108 Δpm
SKTCGKAKVTGRWK (peptide, UniProt P45379-6 275-288, looked up) [Human cTnT-C14 peptide containing HCM-linked mutation R278C] ... 95.4 Δpm

# ---- query binder ----
According to the records, this binder SKTRGKAKVTGRWK (peptide, UniProt P45379-6 275-288, looked up) displays Maximum Signal (Δpm) of 420 Δpm
